- tgt: BTK (Homo sapiens)
- Sequence (Q06187 whole entry): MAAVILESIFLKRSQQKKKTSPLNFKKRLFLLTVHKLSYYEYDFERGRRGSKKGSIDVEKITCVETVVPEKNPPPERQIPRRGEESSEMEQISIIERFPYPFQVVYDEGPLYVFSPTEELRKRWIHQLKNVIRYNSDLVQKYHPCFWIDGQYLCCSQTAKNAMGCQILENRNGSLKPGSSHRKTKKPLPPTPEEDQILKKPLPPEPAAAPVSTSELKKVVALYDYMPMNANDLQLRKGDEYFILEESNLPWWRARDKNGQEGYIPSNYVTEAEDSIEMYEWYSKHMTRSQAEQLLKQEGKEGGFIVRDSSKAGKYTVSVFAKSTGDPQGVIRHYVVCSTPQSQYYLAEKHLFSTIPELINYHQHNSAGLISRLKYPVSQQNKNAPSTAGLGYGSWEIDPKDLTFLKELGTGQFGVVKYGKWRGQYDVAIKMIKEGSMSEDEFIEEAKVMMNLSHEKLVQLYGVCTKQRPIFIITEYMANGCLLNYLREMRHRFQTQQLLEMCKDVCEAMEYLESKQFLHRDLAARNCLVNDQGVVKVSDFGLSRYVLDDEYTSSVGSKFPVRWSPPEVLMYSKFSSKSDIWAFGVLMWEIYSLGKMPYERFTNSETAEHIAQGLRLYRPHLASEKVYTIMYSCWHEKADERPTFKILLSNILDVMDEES
- assayProcedure: Degradation of BTK protein in Namalwa cells (Western blot; DC50, Dmax)
- experimentalSetup: read-out: DC50 (BTK degradation); concentration giving 50% reduction of BTK expression level; cell line not given
DC50 listing for selected compounds.

A selection of reference data follows.
# get_value(readout='DC50', item= Nc1ncnc2c1c(-c1ccc(Oc3ccccc3)cc1)nn2[C@@H]1CCCN(C2CN(C(=O)N3CC(N4CCN(c5ccc6c(c5)CN(C5CCC(=O)NC5=O)C6=O)CC4)C3)C2)C1 (some centres unmarked) )
< 10 nM

# get_value(readout='DC50', item= Nc1ncnc2c1c(-c1ccc(Oc3ccccc3)cc1)nn2[C@@H]1CCCN(C2CCN(CC3CCN(c4ccc(C(=O)NC5CCC(=O)NC5=O)cc4)CC3)CC2)C1 (some centres unmarked) )
< 10 nM

Continuing:
# get_value(readout='DC50', item= Nc1ncnc2c1c(-c1ccc(Oc3ccccc3)cc1)nn2C1CCN(CCN2CCC(CN3CCN(c4ccc5c(c4)C(=O)N(C4CCC(=O)NC4=O)C5=O)CC3)C2)CC1 (centres unmarked) )
< 10 nM

# get_value(readout='DC50', item= Nc1ncnc2c1c(-c1ccc(Oc3ccccc3)cc1)nn2C1CCN(CCN2CCC(CSc3ccc4c(c3)C(=O)N(C3CCC(=O)NC3=O)C4=O)CC2)CC1 (centres unmarked) )
< 10 nM

# get_value(readout='DC50', item= NC1=NC=NC2C1C(c1ccc(Oc3ccccc3)cc1)=NN2C1CCN(C(=O)N2CC(C3CN(c4ccc5c(c4)CN([C@@H]4CCC(=O)NC4=O)C5=O)C3)C2)CC1 (some centres unmarked) )
< 10 nM
